Tested on: Hepatitis C virus NS3 helicase
Experiment: HCV NS3 helicase inhibitors, primary screen, biochemical, fluorescence polarization, ChemBridge library (AID 687043)
Settings: NS3h Cy5-dT15 DNA binding, at 100 µM, active compounds read high
Hit rate of the full screen: of about 16,000 compounds, about 250 (1.6%) were called active. The sample holds actives, similar compounds and a random draw of the others, so the mix is not that of the screen.
reportedMetric: inhibition (%)
Just the number in %, nothing appended.

Qu. Identify the reported inhibition for the following entry. Cc1ccc(S(=O)(=O)Nc2cc(-c3ccc(F)cc3)[nH]n2)cc1
Ans. -6.5

Qu. Identify the reported inhibition for the following entry. Cc1cccc(-c2cc(NC(=O)COc3ccc(Cl)cc3Cl)n[nH]2)c1
Ans. -2.4

Qu. Identify the reported inhibition for the following entry. Cc1cccc(OCCOc2ccc(Cl)cc2/C=C2/SC(=S)N(C)C2=O)c1
Ans. 23.2

Qu. Identify the reported inhibition for the following entry. Cc1ccc(C(=O)Nc2ccc(C(C)C)cc2)cc1C
Ans. 3.2

Qu. Identify the reported inhibition for the following entry. O=C(NC1C2CC3CC(C2)CC1C3)c1cccc(I)c1 (stereo unspecified)
Ans. 15.2

Qu. Identify the reported inhibition for the following entry. COc1ccc(C(=O)Nc2ccc(Br)cc2C)c(OC)c1
Ans. 24.4

Qu. Identify the reported inhibition for the following entry. CCOC(=O)c1ccc(NC(=O)c2ccccc2OC)cc1
Ans. 17.7

Qu. Identify the reported inhibition for the following entry. CCCCCCN1C(=O)C(O)=C(C(C)=O)C1c1ccc(Br)cc1 (stereo unspecified)
Ans. -0.7

Qu. Identify the reported inhibition for the following entry. CCOC(=O)c1c(C)nc2n(/N=C\c3ccc([N+](=O)[O-])cc3)c3ccccc3n12
Ans. 6.3

Qu. Identify the reported inhibition for the following entry. CCOC(=O)C1=C(C)N=c2s/c(=C\c3ccc(F)cc3)c(=O)n2C1c1cccc(OC)c1 (stereo unspecified)
Ans. 10

Qu. Identify the reported inhibition for the following entry. O=C(O)COc1ccc2c(=O)c(Oc3ccccc3Br)coc2c1
Ans. 4.5

Qu. Identify the reported inhibition for the following entry. Cc1cc(C)n(C(=O)COc2cccc3ccccc23)n1
Ans. 7.8

Qu. Identify the reported inhibition for the following entry. COc1ccc(CC(=O)Nc2cc(NC(=O)Cc3ccc(OC)cc3)cc(C(=O)NC(C)(C)C)c2)cc1
Ans. 8.2

Qu. Identify the reported inhibition for the following entry. O=C(NC(=S)Nc1ccc2oc(-c3ccc(Br)cc3)nc2c1)c1ccco1
Ans. 17

Qu. Identify the reported inhibition for the following entry. CCOC(=O)C1=C(C)N=c2s/c(=C/c3c[nH]c4ccccc34)c(=O)n2C1c1ccc(F)cc1 (stereo unspecified)
Ans. -6.3

Qu. Identify the reported inhibition for the following entry. O=C(O)CC1S/C(=N\N=C2/C(=O)Nc3ccccc32)N(c2ccc(O)cc2)C1=O (stereo unspecified)
Ans. 1.8

Qu. Identify the reported inhibition for the following entry. CC(C)(C)c1ccc(C2C(C(=O)c3ccco3)=C(O)C(=O)N2c2ncc(S(=O)(=O)c3ccc([N+](=O)[O-])cc3)s2)cc1 (stereo unspecified)
Ans. 9.7

Qu. Identify the reported inhibition for the following entry. COc1ccc(S(=O)(=O)NCCC(C)C)cc1
Ans. 4.2

Qu. Identify the reported inhibition for the following entry. CCOc1cc(/C=C2\C=C(c3ccc(C)cc3)OC2=O)ccc1OC(C)=O
Ans. -4.9

Qu. Identify the reported inhibition for the following entry. Cc1ccccc1OCC(=O)Nc1ccc(OC(F)(F)F)cc1
Ans. 2.3

Qu. Identify the reported inhibition for the following entry. O=C(NC(=S)Nc1ccc2oc(-c3cccnc3)nc2c1)c1ccc(Cl)cc1
Ans. -3.5
